Biological target: CyclinE1/CDK2 (Homo sapiens)
Construct: purchased Eurofins, discovery 14-475
Assay: Fluorescence Polarization (FP) competitive binding assay, Cyclin E1/Cdk2
Conditions: 10 nM Cyclin E1/Cdk2, 2 nM FAM probe; average of 2-3 independent experiments; read-out: Cyclin E FP IC50
*1 amine or outer side, *2 acyl side, *3 side chain or, on linkers, in order; H or OH if unused. Where a SMILES comes first, the peptide text is derived from it. Bridges are numbered along the chain shown (N, C = ends). [ ]: non-standard residue; d: D form. The star is where a group is joined. X137 = CN([C@@H](Cc1cc(F)ccc1-c1cnn(S(C)(=O)=O)c1)C(=O)[*:2])[*:1]; NMehhhLys(Me) = CN([C@@H](CCCCCCCN(C)[*:3])C(=O)[*:2])[*:1]; X22 = CN([C@@H](Cc1cc(Cl)ccc1-c1cnn(C)c1)C(=O)[*:2])[*:1]; X109 = CN([C@@H](Cc1cc(Cl)ccc1-c1ccncc1)C(=O)[*:2])[*:1]; Oxane2carbonyl(2R-CF3) = O=C([C@@]1(C(F)(F)F)CCCCO1)*; cBuCO(3,3-F2-1-CF3) = O=C(C1(C(F)(F)F)CC(F)(F)C1)*; Pro(trans-4-F) = O=C(O)[C@@H]1C[C@@H](F)CN1; Pro(4,4-F2) = O=C(O)[C@@H]1CC(F)(F)CN1; Gly(cPr) = N[C@H](C(=O)O)C1CC1
readout name: pIC50
pIC50 (log units): -log10 of the concentration in mol/L.

See these solved cases before continuing.
[
  {
    "compound": "CC(C)C[C@@H]1NC(=O)[C@@H](N(C)C(=O)[C@@H](NC(=O)[C@@H]2CC(F)(F)CN2C(=O)C2(C(F)(F)F)CC(F)(F)C2)C2CC2)CCCCCCCN(C)C(=O)[C@H](Cc2cc(Cl)ccc2-c2cnn(C)c2)N(C)C1=O [Example 343] ({cBuCO(3,3-F2-1-CF3)}-[Pro(4,4-F2)][Gly(cPr)][NMehhhLys(Me)]L[X22]; lactam 3-C)",
    "pIC50": 6.17
  },
  {
    "compound": "CC(C)C[C@@H]1NC(=O)[C@@H](N(C)C(=O)[C@@H](NC(=O)[C@@H]2C[C@@H](F)CN2C(=O)[C@@]2(C(F)(F)F)CCCCO2)C2CC2)CCCCCCCN(C)C(=O)[C@H](Cc2cc(F)ccc2-c2cnn(S(C)(=O)=O)c2)N(C)C1=O [Example 303] ({Oxane2carbonyl(2R-CF3)}-[Pro(trans-4-F)][Gly(cPr)][NMehhhLys(Me)]L[X137]; lactam 3-C)",
    "pIC50": 7.00
  }
]

Ask: Record lookup: for CyclinE1/CDK2 (Homo sapiens), what pIC50 belongs to CC(C)C[C@@H]1NC(=O)[C@@H](N(C)C(=O)[C@@H](NC(=O)[C@@H]2C[C@@H](F)CN2C(=O)C2(C(F)(F)F)CC(F)(F)C2)C2CC2)CCCCCCCN(C)C(=O)[C@H](Cc2cc(Cl)ccc2-c2ccncc2)N(C)C1=O [Example 192] ({cBuCO(3,3-F2-1-CF3)}-[Pro(trans-4-F)][Gly(cPr)][NMehhhLys(Me)]L[X109]; lactam 3-C) ?
Reply: 5.94

###

System: OVCAR3 cells
Test: MTT proliferation assay, OVCAR3;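 also: compound given as an 8- or 10-point series, one day after plating, with exposure covering roughly 3-4 cell doublings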
Assay type: cell-based
Conditions: 5 days compound exposure, 1:3 serial dilution starting at 10 μM
*1 amine or outer side, *2 acyl side, *3 side chain or, on linkers, in order; H or OH if unused. Where a SMILES comes first, the peptide text is derived from it. Bridges are numbered along the chain shown (N, C = ends). [ ]: non-standard residue; d: D form. The star is where a group is joined. X120 = CN([C@@H](Cc1cc(Cl)ccc1-c1ccn(S(C)(=O)=O)c1)C(=O)[*:2])[*:1]; NMePhe(5-Cl,2-O(2-Pym)) = CN[C@@H](Cc1cc(Cl)ccc1Oc1ncccn1)C(=O)O; NMehhhLys(Me) = CN([C@@H](CCCCCCCN(C)[*:3])C(=O)[*:2])[*:1]; X125 = CN([C@@H](Cc1cc(Cl)ccc1-c1cncc(F)c1)C(=O)[*:2])[*:1]; NMe3Pal(2-OiPr,5-Cl) = CN[C@@H](Cc1cc(Cl)cnc1OC(C)C)C(=O)O; Cyclobutanecarbonyl(1-CF3) = O=C(C1(C(F)(F)F)CCC1)*; cBuCO(3,3-F2-1-CF3) = O=C(C1(C(F)(F)F)CC(F)(F)C1)*; X25 = CCOc1ncc(Cl)cc1C[C@@H](C(=O)[*:2])N(C)[*:1]; Pro(trans-4-F) = O=C(O)[C@@H]1C[C@@H](F)CN1; Gly(cPr) = N[C@H](C(=O)O)C1CC1
hey, just use True if measured GI50 is less than 30 nM, otherwise False

[
  {
    "molecule": "CC(C)C[C@@H]1NC(=O)[C@@H](N(C)C(=O)[C@@H](NC(=O)[C@@H]2C[C@@H](F)CN2C(=O)C2(C(F)(F)F)CCC2)C2CC2)CCCCCCCN(C)C(=O)[C@H](Cc2cc(Cl)ccc2Oc2ncccn2)N(C)C1=O [Example 159] ({Cyclobutanecarbonyl(1-CF3)}-[Pro(trans-4-F)][Gly(cPr)][NMehhhLys(Me)]L[NMePhe(5-Cl,2-O(2-Pym))]; lactam 3-C)",
    "class assignment": "True"
  },
  {
    "molecule": "CC(C)C[C@@H]1NC(=O)[C@@H](N(C)C(=O)[C@@H](NC(=O)[C@@H]2C[C@@H](F)CN2C(=O)C2(C(F)(F)F)CC(F)(F)C2)C2CC2)CCCCCCCN(C)C(=O)[C@H](Cc2cc(Cl)ccc2-c2ccn(S(C)(=O)=O)c2)N(C)C1=O [Example 307] ({cBuCO(3,3-F2-1-CF3)}-[Pro(trans-4-F)][Gly(cPr)][NMehhhLys(Me)]L[X120]; lactam 3-C)",
    "class assignment": "True"
  },
  {
    "molecule": "CCOc1ncc(Cl)cc1C[C@H]1C(=O)N(C)CCCCCCC[C@H](N(C)C(=O)[C@@H](NC(=O)[C@@H]2C[C@@H](F)CN2C(=O)C2(C(F)(F)F)CCC2)C2CC2)C(=O)N[C@@H](CC(C)C)C(=O)N1C [Example 227] ({Cyclobutanecarbonyl(1-CF3)}-[Pro(trans-4-F)][Gly(cPr)][NMehhhLys(Me)]L[X25]; lactam 3-C)",
    "class assignment": "False"
  },
  {
    "molecule": "CC(C)C[C@@H]1NC(=O)[C@@H](N(C)C(=O)[C@@H](NC(=O)[C@@H]2C[C@@H](F)CN2C(=O)C2(C(F)(F)F)CC(F)(F)C2)C2CC2)CCCCCCCN(C)C(=O)[C@H](Cc2cc(Cl)ccc2-c2cncc(F)c2)N(C)C1=O [Example 198] ({cBuCO(3,3-F2-1-CF3)}-[Pro(trans-4-F)][Gly(cPr)][NMehhhLys(Me)]L[X125]; lactam 3-C)",
    "class assignment": "False"
  }
]

Alright, here's another molecule for you.
Ask: Please indicate whether the reported GI50 of CC(C)C[C@@H]1NC(=O)[C@@H](N(C)C(=O)[C@@H](NC(=O)[C@@H]2C[C@@H](F)CN2C(=O)C2(C(F)(F)F)CC(F)(F)C2)C2CC2)CCCCCCCN(C)C(=O)[C@H](Cc2cc(Cl)cnc2OC(C)C)N(C)C1=O [Example 120] ({cBuCO(3,3-F2-1-CF3)}-[Pro(trans-4-F)][Gly(cPr)][NMehhhLys(Me)]L[NMe3Pal(2-OiPr,5-Cl)]; lactam 3-C) is strictly below 30 nM.
Reply: False

###

Biological target: CyclinE1/CDK2 (Homo sapiens)
Construct: purchased Eurofins, discovery 14-475
Assay: Fluorescence Polarization (FP) competitive binding assay, Cyclin E1/Cdk2;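 also: readings taken after two-hour equilibration at room temperature in HEPES buffer with NaCl, DTT, NP-40 and BSA, IC50 fitted from eight-concentration serial dilution series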
Conditions: 10 nM Cyclin E1/Cdk2, 2 nM FAM probe; average of 2-3 independent experiments; read-out: Cyclin E FP IC50
*1 amine or outer side, *2 acyl side, *3 side chain or, on linkers, in order; H or OH if unused. Where a SMILES comes first, the peptide text is derived from it. Bridges are numbered along the chain shown (N, C = ends). [ ]: non-standard residue; d: D form. The star is where a group is joined. X7 = CC(C)C(=O)N1[C@H]2CC[C@@H]1C=C(c1ccc(F)cc1C[C@@H](C(=O)[*:2])N(C)[*:1])C2; NMeAla(5-Cl-2-cPrO-3-pyridyl) = CN[C@@H](Cc1cc(Cl)cnc1OC1CC1)C(=O)O; X35 = CN([C@@H](Cc1cc(Cl)ccc1-c1cnc2ccnn2c1)C(=O)[*:2])[*:1]; NMehhhLys(Me) = CN([C@@H](CCCCCCCN(C)[*:3])C(=O)[*:2])[*:1]; X125 = CN([C@@H](Cc1cc(Cl)ccc1-c1cncc(F)c1)C(=O)[*:2])[*:1]; X207 = CN([C@@H](Cc1cc(F)ccc1-c1cn(C)cn1)C(=O)[*:2])[*:1]; NMe(hhhLys) = CN([C@@H](CCCCCCCN[*:3])C(=O)[*:2])[*:1]; Cyclobutanecarbonyl(1-CF3) = O=C(C1(C(F)(F)F)CCC1)*; cBuCO(3,3-F2-1-CF3) = O=C(C1(C(F)(F)F)CC(F)(F)C1)*; Pro(trans-4-F) = O=C(O)[C@@H]1C[C@@H](F)CN1; Gly(cPr) = N[C@H](C(=O)O)C1CC1
readout name: IC50 (nM)
Only the number, expressed in nM, is required.

// below: answered compounds
[
  {
    "compound": "CC(C)C[C@@H]1NC(=O)[C@@H](N(C)C(=O)[C@@H](NC(=O)[C@@H]2C[C@@H](F)CN2C(=O)C2(C(F)(F)F)CC(F)(F)C2)C2CC2)CCCCCCCN(C)C(=O)[C@H](Cc2cc(Cl)ccc2-c2cnc3ccnn3c2)N(C)C1=O [Example 172] ({cBuCO(3,3-F2-1-CF3)}-[Pro(trans-4-F)][Gly(cPr)][NMehhhLys(Me)]L[X35]; lactam 3-C)",
    "target or system": "CyclinE1/CDK2 (Homo sapiens)",
    "IC50 (nM)": 2430
  },
  {
    "compound": "CC(C)C[C@@H]1NC(=O)[C@@H](N(C)C(=O)[C@@H](NC(=O)[C@@H]2C[C@@H](F)CN2C(=O)C2(C(F)(F)F)CC(F)(F)C2)C2CC2)CCCCCCCN(C)C(=O)[C@H](Cc2cc(Cl)ccc2-c2cncc(F)c2)N(C)C1=O [Example 198] ({cBuCO(3,3-F2-1-CF3)}-[Pro(trans-4-F)][Gly(cPr)][NMehhhLys(Me)]L[X125]; lactam 3-C)",
    "target or system": "CyclinE1/CDK2 (Homo sapiens)",
    "IC50 (nM)": 1450
  },
  {
    "compound": "CC(C)C[C@@H]1NC(=O)[C@@H](N(C)C(=O)[C@@H](NC(=O)[C@@H]2C[C@@H](F)CN2C(=O)C2(C(F)(F)F)CCC2)C2CC2)CC=CCCCCN(C)C(=O)[C@H](Cc2cc(Cl)ccc2Cl)N(C)C1=O",
    "target or system": "CyclinE1/CDK2 (Homo sapiens)",
    "IC50 (nM)": 130
  },
  {
    "compound": "CC(C)C[C@@H]1NC(=O)[C@@H](N(C)C(=O)[C@@H](NC(=O)[C@@H]2C[C@@H](F)CN2C(=O)C2(C(F)(F)F)CC(F)(F)C2)C2CC2)CCCCCCCN(C)C(=O)[C@H](Cc2cc(F)ccc2-c2cn(C)cn2)N(C)C1=O [Example 164] ({cBuCO(3,3-F2-1-CF3)}-[Pro(trans-4-F)][Gly(cPr)][NMehhhLys(Me)]L[X207]; lactam 3-C)",
    "target or system": "CyclinE1/CDK2 (Homo sapiens)",
    "IC50 (nM)": 930
  },
  {
    "compound": "CC(C)C[C@@H]1NC(=O)[C@@H](N(C)C(=O)[C@@H](NC(=O)[C@@H]2C[C@@H](F)CN2C(=O)C2(C(F)(F)F)CC(F)(F)C2)C2CC2)CCCCCCCNC(=O)[C@H](Cc2cc(F)ccc2C2=C[C@H]3CC[C@@H](C2)N3C(=O)C(C)C)N(C)C1=O [Example 316] ({cBuCO(3,3-F2-1-CF3)}-[Pro(trans-4-F)][Gly(cPr)][NMe(hhhLys)]L[X7]; lactam 3-C)",
    "target or system": "CyclinE1/CDK2 (Homo sapiens)",
    "IC50 (nM)": 290
  }
]

With those in mind, consider the next compound.
Ask: Look up IC50 with CyclinE1/CDK2 (Homo sapiens) for this compound: CC(C)C[C@@H]1NC(=O)[C@@H](N(C)C(=O)[C@@H](NC(=O)[C@@H]2C[C@@H](F)CN2C(=O)C2(C(F)(F)F)CCC2)C2CC2)CCCCCCCNC(=O)[C@H](Cc2cc(Cl)cnc2OC2CC2)N(C)C1=O [Example 108] ({Cyclobutanecarbonyl(1-CF3)}-[Pro(trans-4-F)][Gly(cPr)][NMe(hhhLys)]L[NMeAla(5-Cl-2-cPrO-3-pyridyl)]; lactam 3-C)
Reply: 180
